# Assay method text: Inhibition of human ACE Ndom389 mutant preincubated for 30 mins followed by Z-FHL substrate addition measured after 15 mins by fluorimetric method
Here the recorded pKi is given for each entry.
Note: pKi values are expressed as the negative base-10 logarithm of concentration in M.

C[C@H](N[C@H](C(=O)O)[C@@H]1CCCN1C(=O)[C@@H](N)CCC(=O)O)C(=O)N1CCC[C@H]1C(=O)O = 8.02
C[C@H](N[C@H](C(=O)O)[C@@H]1CCCN1C(=O)[C@@H](N)Cc1ccccc1)C(=O)N1CCC[C@H]1C(=O)O = 7.15
C[C@H](N[C@H](C(=O)O)[C@@H]1CCCN1C(=O)c1ccccc1)C(=O)N1CCC[C@H]1C(=O)O = 8.35
C[C@H](N[C@H](C(=O)O)[C@@H]1CCCN1C(=O)c1ccc(C(=O)O)cc1)C(=O)N1CCC[C@H]1C(=O)O = 7.77
C[C@H](N[C@H](C(=O)O)[C@@H]1CCCN1C(=O)[C@@H](N)CC(=O)O)C(=O)N1CCC[C@H]1C(=O)O = 7.94
C[C@H](N[C@H](C(=O)O)[C@@H]1CCCN1C(=O)c1ccc(N)cc1)C(=O)N1CCC[C@H]1C(=O)O = 8.47

From here, focus on the item given below.
The compound listed as C[C@H](N[C@H](C(=O)O)[C@@H]1CCCN1C(=O)CN)C(=O)N1CCC[C@H]1C(=O)O has a reported pKi of 6.55

Reference for the values: ChEMBL document CHEMBL4028915
